List of protein stability index values.
B1: SLC6A17 (parent)
chain: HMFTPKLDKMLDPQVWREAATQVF

Variants of: B1
protocol_summary: protein stability index of a GFP-peptide fusion (GPS, HEK-293T) (PSI 1-6); higher = more stable;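 further: lentivirally expressed fusions sorted by FACS into six bins by GFP to DsRed ratio, PSI derived from sequencing read proportions per bin multiplied by bin number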
condition: c terminus: a fixed tail appended
measured_attribute: protein stability index

residue_change: V23H
experimental_result: 2.02
//
residue_change: Q14Y
experimental_result: 2.03
//
residue_change: K6I
experimental_result: 1.7
//
residue_change: T21R
experimental_result: 1.84
//
residue_change: V23C
experimental_result: 2.99
//
residue_change: P5L
experimental_result: 1.55
//
residue_change: Q22K
experimental_result: 2.52
//
residue_change: Q14G
experimental_result: 1.56
//
residue_change: V15N
experimental_result: 1.9
//
residue_change: E18T
experimental_result: 1.79
//
residue_change: M10I
experimental_result: 1.74
//
residue_change: P13W
experimental_result: 1
//
residue_change: L7A
experimental_result: 1.94
//
residue_change: H1V
experimental_result: 2.51
//
residue_change: P5T
experimental_result: 1.53
//
residue_change: Q14N
experimental_result: 2.23
//
residue_change: M2L
experimental_result: 1.71
//
residue_change: F3T
experimental_result: 2.01
//
residue_change: M10D
experimental_result: 2.63
//
residue_change: R17M
experimental_result: 2.42
//
residue_change: D12W
experimental_result: 2.8
//
residue_change: M10C
experimental_result: 2.31
//
residue_change: M10Q
experimental_result: 2.78
//
residue_change: E18Q
experimental_result: 2.22
//
residue_change: M2T
experimental_result: 2.14
//
residue_change: K9A
experimental_result: 1.21
//
residue_change: H1L
experimental_result: 1.88
//
residue_change: E18S
experimental_result: 1.99
//
residue_change: K9G
experimental_result: 1.25
//
residue_change: T21V
experimental_result: 1.71
//
residue_change: A19T
experimental_result: 2.56
//
residue_change: V23F
experimental_result: 2.16
//
residue_change: V15D
experimental_result: 2.96
//
residue_change: R17K
experimental_result: 1.11
//
residue_change: L11S
experimental_result: 2.18
//
residue_change: K6H
experimental_result: 1.83

Provenance of the data: the supplement of paper PMC10567573
